B1: ZNF263 (parent)
chain: FGGNPRFLSLHRAHLGEEAHKCLE

Variants of: B1
Assay: protein stability index of a GFP-peptide fusion (GPS, HEK-293T) (PSI 1-6); higher = more stable;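 further: lentivirally expressed fusions sorted by FACS into six bins by GFP to DsRed ratio, PSI derived from sequencing read proportions per bin multiplied by bin number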
Settings: c terminus: a fixed tail appended
Form field: protein stability index (one value per entry).

>  <seqText>
FGGNPRFLSLHRAHLGEAAHKCLE

>  <result>
1.77

$$$$
>  <seqText>
FGGNPRFLSLHRAHLREEAHKCLE

>  <result>
1.64

$$$$
>  <seqText>
FGGNPRFLSLHRAHQGEEAHKCLE

>  <result>
1.86

$$$$

Fill in the blank: the reported protein stability index of "FGGNPRFLSLHRAHLGEEAHKCCE" is ____.
1.97

Fill in the blank: the reported protein stability index of "FGGNPRFLSLHRAHLGEERHKCLE" is ____.
1.59

Fill in the blank: the reported protein stability index of "FGGNPRFLSLHRAHLGEEAHKCLN" is ____.
1.48

Fill in the blank: the reported protein stability index of "FGGNPRFLSLHRAHLGEEAHKCSE" is ____.
1.63

Fill in the blank: the reported protein stability index of "FGGNPRFLSLHHAHLGEEAHKCLE" is ____.
1.71

Fill in the blank: the reported protein stability index of "FGGNPEFLSLHRAHLGEEAHKCLE" is ____.
1.3

Fill in the blank: the reported protein stability index of "FGGNPAFLSLHRAHLGEEAHKCLE" is ____.
3.22

Fill in the blank: the reported protein stability index of "FGGNPRFLSLHRFHLGEEAHKCLE" is ____.
2.52

Reference source: the supplement of paper PMC10567573
